test system: Human immunodeficiency virus 1; test: Antiviral activity against Human immunodeficiency virus 1 LAI infected in PHA-stimulated human PBMC; assay type: functional, organism-based
Entries whose EC50 is below 800 nM take satisfied; entries at or above 800 nM take not satisfied.

COMPOUND: CCOC(=O)[C@H](C)NP(=O)(OC[C@@H]1OC[C@H](n2cnc3c(OC)ncnc32)O1)Oc1ccccc1 (stereo partly specified)
QUALITATIVE LABEL: satisfied
--
COMPOUND: Nc1nc(N)c2ncn([C@H]3CO[C@@H](CO)O3)c2n1
QUALITATIVE LABEL: satisfied
--
COMPOUND: CCOC(=O)CCc1ccccc1OP(=O)(N[C@@H](C)C(=O)OCC)OC[C@@H]1OC[C@H](n2cnc3c(NC4CC4)ncnc32)O1 (stereo partly specified)
QUALITATIVE LABEL: satisfied
--
COMPOUND: CCOC(=O)CCc1ccccc1OP(=O)(N[C@@H](C)C(=O)OCC)OC[C@@H]1OC[C@H](n2cnc3c(N)ncnc32)O1 (stereo partly specified)
QUALITATIVE LABEL: satisfied
--
COMPOUND: CC(C)OC(=O)CCc1ccccc1OP(=O)(N[C@@H](C)C(=O)OC(C)C)OC[C@@H]1OC[C@H](n2cnc3c(NC4CC4)ncnc32)O1 (stereo partly specified)
QUALITATIVE LABEL: not satisfied
--
COMPOUND: OC[C@@H]1OC[C@H](n2cnc3c(NC4CC4)ncnc32)O1
QUALITATIVE LABEL: not satisfied
